Reference source: the supplement of paper PMC8728848

# target desc: Neu5Ac(a2-6)GalNAc(b1-4)GlcNAc6S
# measurement protocol: glycan array binding signal (z-score within array); higher = stronger binding
# reported conditions: glycan notation: IUPAC condensed, linker removed
Many of the other results were omitted from the sample, so the strongest signals are more common in it than they were.

binder	glycan array binding signal (z-score)
GNA (Galanthus nivalis), P30617 (protein) MAKASLLILAAIFLGVITPSCLSDNILYSGETLSTGEFLNYGSFVFIMQEDCNLVLYDVDKPIWATNTGGLSRSCFLSMQTDGNLVVYNPSNKPIWASNTGGQNGNYVCILQKDRNVVIYGTDRWATGTHTGLVGIPASPPSEKYPTAGKIKLVTAK	-0.173
CD34 (Homo sapiens), P28906 (protein) MGSSHHHHHHSSGLVPRGSHMSTSLATSPTKPYTSSSPILSDIKAEIKCSGIREVKLTQGICLEQNKTSSCAEFKKDRGEGLARVLCGEEQADADAGAQVCSLLLAQSEVRPQCLLLVLANRTEISSKLQLMKKHQSDLKKLGILDFTEQDVASHQSYSQKT	0.66
